Where do the numbers come from? From the supplement of paper PMC6555819.

tested on: FXR:RXRa (NR concentration 270 nM, RXRa partner concentration 90 nM); experiment: PBM binding z-score (relative to random genomic background probes); higher = stronger binding; sequences stand for … in GC…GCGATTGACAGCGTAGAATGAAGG
Assign class by PBM binding z-score: not lower than 0.6 means rule met; lower than 0.6 means rule not met.

Prompt: Check if PBM binding z-score >= 0.6 (inclusive). Item: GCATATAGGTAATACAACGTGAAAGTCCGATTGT
Response: rule not met

Prompt: Check if PBM binding z-score >= 0.6 (inclusive). Item: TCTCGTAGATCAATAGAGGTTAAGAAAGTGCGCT
Response: rule not met

Prompt: Check if PBM binding z-score >= 0.6 (inclusive). Item: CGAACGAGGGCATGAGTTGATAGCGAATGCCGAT
Response: rule met

Prompt: Check if PBM binding z-score >= 0.6 (inclusive). Item: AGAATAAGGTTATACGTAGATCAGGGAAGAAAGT
Response: rule met

Prompt: Check if PBM binding z-score >= 0.6 (inclusive). Item: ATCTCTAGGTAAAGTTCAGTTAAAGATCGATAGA
Response: rule met

Prompt: Check if PBM binding z-score >= 0.6 (inclusive). Item: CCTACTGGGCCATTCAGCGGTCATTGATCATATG
Response: rule not met

Prompt: Check if PBM binding z-score >= 0.6 (inclusive). Item: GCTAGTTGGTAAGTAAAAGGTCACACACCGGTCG
Response: rule met

Prompt: Check if PBM binding z-score >= 0.6 (inclusive). Item: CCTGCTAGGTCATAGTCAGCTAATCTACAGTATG
Response: rule met

Prompt: Check if PBM binding z-score >= 0.6 (inclusive). Item: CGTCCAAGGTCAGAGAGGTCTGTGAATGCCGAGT
Response: rule met

Prompt: Check if PBM binding z-score >= 0.6 (inclusive). Item: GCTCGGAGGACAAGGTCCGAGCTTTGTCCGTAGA
Response: rule not met

Prompt: Check if PBM binding z-score >= 0.6 (inclusive). Item: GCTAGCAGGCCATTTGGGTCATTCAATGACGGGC
Response: rule not met

Prompt: Check if PBM binding z-score >= 0.6 (inclusive). Item: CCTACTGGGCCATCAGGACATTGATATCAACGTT
Response: rule not met

Prompt: Check if PBM binding z-score >= 0.6 (inclusive). Item: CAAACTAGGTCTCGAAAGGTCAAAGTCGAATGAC
Response: rule met

Prompt: Check if PBM binding z-score >= 0.6 (inclusive). Item: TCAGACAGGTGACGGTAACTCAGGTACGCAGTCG
Response: rule not met

Prompt: Check if PBM binding z-score >= 0.6 (inclusive). Item: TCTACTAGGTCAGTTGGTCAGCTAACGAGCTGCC
Response: rule met

Prompt: Check if PBM binding z-score >= 0.6 (inclusive). Item: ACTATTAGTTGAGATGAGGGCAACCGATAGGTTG
Response: rule met

Prompt: Check if PBM binding z-score >= 0.6 (inclusive). Item: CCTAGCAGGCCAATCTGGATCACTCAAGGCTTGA
Response: rule not met

Prompt: Check if PBM binding z-score >= 0.6 (inclusive). Item: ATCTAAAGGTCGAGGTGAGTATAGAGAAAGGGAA
Response: rule met

Prompt: Check if PBM binding z-score >= 0.6 (inclusive). Item: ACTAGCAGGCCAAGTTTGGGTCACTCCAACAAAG
Response: rule not met

Prompt: Check if PBM binding z-score >= 0.6 (inclusive). Item: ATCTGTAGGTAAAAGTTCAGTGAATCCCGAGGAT
Response: rule not met

Prompt: Check if PBM binding z-score >= 0.6 (inclusive). Item: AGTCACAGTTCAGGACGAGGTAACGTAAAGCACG
Response: rule met

Prompt: Check if PBM binding z-score >= 0.6 (inclusive). Item: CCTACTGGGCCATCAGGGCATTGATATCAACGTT
Response: rule not met

Prompt: Check if PBM binding z-score >= 0.6 (inclusive). Item: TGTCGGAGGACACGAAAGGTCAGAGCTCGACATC
Response: rule met

Prompt: Check if PBM binding z-score >= 0.6 (inclusive). Item: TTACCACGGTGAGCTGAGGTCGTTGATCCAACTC
Response: rule met

Prompt: Check if PBM binding z-score >= 0.6 (inclusive). Item: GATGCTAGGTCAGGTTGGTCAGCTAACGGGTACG
Response: rule met
